- Test system: Enterobacter cloacae ATCC BAA-1143
- assay-method-text: Rescue concentration, modified checkerboard MIC adjuvant assay
- Type: cell-based
- experimental-conditions: E. cloacae ATCC BAA-1143; Chl at susceptible breakpoint 8 μg mL^−1
Provide the recorded Rescue concentration, Chl (8) for the entries that follow.

Example entries and their recorded answers appear below.
compound-string	Rescue concentration, Chl (8)
Brc1ccc(C(c2c[nH]c3cnccc23)c2c[nH]c3cnccc23)cc1	>128 µg/mL
Brc1ccc(C(c2c[nH]c3ncccc23)c2c[nH]c3ncccc23)cc1	>128 µg/mL
Oc1ccc(C(c2c[nH]c3ncccc23)c2c[nH]c3ncccc23)cc1	>128 µg/mL

Query compound follows.
Note down Rescue concentration, Chl (8) recorded for `Oc1ccc(C(c2c[nH]c3cnccc23)c2c[nH]c3cnccc23)cc1`
32 µg/mL

====

What Rescue concentration, Mero (2) was measured for each of the following?
- Test system: Stenotrophomonas maltophilia MDR 7785
- assay-method-text: Rescue concentration, modified checkerboard MIC adjuvant assay
- Format: cell-based
- experimental-conditions: S. maltophilia MDR 7785; Mero at susceptible breakpoint 2 μg mL^−1
- Protocol: Reference microorganisms as well as clinical strains used to evaluate the antimicrobial adjuvant properties of SP-6azaBIM 125 and SP-6azaBIM 136 are listed in Table 3. Clinical strains of bacteria were kindly provided by the Faculty of Medical Sciences, UWI, St. Augustine, Trinidad. […] The antibiotic adjuvant activity of the SPazaBIMs were evaluated in combination with representative antibiotics (representing 13 antibiotic classes) against the 19 pathogens strains listed in Table 3. […]

compound	observed-result
Oc1ccc(C(c2c[nH]c3cnccc23)c2c[nH]c3cnccc23)cc1 [SP-6azaBIM 136]	32 µg/mL
Oc1ccc(C(c2c[nH]c3ncccc23)c2c[nH]c3ncccc23)cc1 [SP-7azaBIM 135]	>128 µg/mL
Brc1ccc(C(c2c[nH]c3cnccc23)c2c[nH]c3cnccc23)cc1 [SP-6azaBIM 125]	4 µg/mL

Shifting focus to the compound that follows.
Give reported Rescue concentration, Mero (2) value for Brc1ccc(C(c2c[nH]c3ncccc23)c2c[nH]c3ncccc23)cc1 [SP-7azaBIM 126]
32 µg/mL

====

For each record, write down the corresponding Rescue concentration, P. aeruginosa Imipenem (1 μg/mL).
- Tested on: P. aeruginosa
- assay-method-text: Rescue concentration of substituted phenyl azaindole derivatives
- Type: cell-based
- experimental-conditions: Imipenem fixed at 1 μg/mL

// worked examples, Rescue concentration, P. aeruginosa Imipenem (1 μg/mL) included
molecule	assay-system	observed-result
Nc1ccc(C(O)c2c[nH]c3cnccc23)cc1 (stereo not shown) [Compound 4NH2-6aza-OH]	P. aeruginosa	128 µg/mL
O=Cc1cccc(C(O)c2c[nH]c3cnccc23)c1 (stereo not shown) [ISO-6aza-OH]	P. aeruginosa	<256 µg/mL
O=[N+]([O-])c1ccc(C(O)c2c[nH]c3ncc(F)cc23)cc1 (stereo not shown) [4NO2-5Fl-7aza-OH]	P. aeruginosa	<256 µg/mL

Give Rescue concentration, P. aeruginosa Imipenem (1 μg/mL) for each listed item.
1. OC(c1cccc(Br)c1)c1c[nH]c2cnccc12 (stereo not shown) [Compound 3Br-6aza-OH]
2. OC(c1ccc(Br)cc1)c1c[nH]c2cnc(Cl)cc12 (stereo not shown) [4Br-5Cl-6aza-OH]
3. Oc1ccc(C(O)c2c[nH]c3cnc(Cl)cc23)cc1 (stereo not shown) [4OH-5Cl-6aza-OH]
4. O=[N+]([O-])c1ccc(C(O)c2c[nH]c3ncccc23)cc1 (stereo not shown) [Compound 4NO2-7aza-OH]
5. Brc1ccc(C(c2c[nH]c3cnccc23)c2c[nH]c3cnccc23)cc1 [SP-6azaBIM 125]

["32 µg/mL", "<256 µg/mL", "<256 µg/mL", "<256 µg/mL", "32 µg/mL"]
